The values you see were collected from patent US9918988B2.

Examples of compounds with documented EC50 follow.
Test system: HCV pseudoparticles (genotype 1a HCV E1 and E2 envelope, H77C isolate)
PROTOCOL TEXT: HCV pseudoparticle infection assay (genotype 1a, luciferase reporter, Huh7 cells)
Assay type: cell-based
ASSAY CONDITIONS: Hepatitis C virus, Huh-7, 48 h, read-out: EC50 (1a, nM), HCV genotype 1a pseudoparticles, Huh7 cells, luciferase 2 days after infection; numeric value
Dear colleague, please return just the value in nM, with no unit written.

INPUT SMILES	ASSAY TARGET	EC50 (nM)
C[N+](C)(C)CC(=O)NNC(=O)c1ccc(Nc2nc(NC3(c4ccc(Cl)cc4)CC3)nc(OCC(F)(F)F)n2)cc1	HCV pseudoparticles (genotype 1a HCV E1 and E2 envelope, H77C isolate)	64.1

INPUT: Recall and state the measured EC50 for CC(C)(CNC(=O)c1ccc2cc1OCCCCCCOc1ccc(cc1)CNc1nc(nc(OCC(F)(F)F)n1)N2)C[N+](C)(C)C .
OUTPUT: 7.51

INPUT: Recall and state the measured EC50 for CC(C)(CNC(=O)c1ccc(Nc2nc(NC3(c4ccc(Cl)cc4)CC3)nc(OCC(F)(F)F)n2)cc1)C[N+](C)(C)C .
OUTPUT: 0.115
